Test system: L-succinylaminoacylase disclosed in Patent Document 3
Test: Comparative experiment for enzymatic activity (ii), enzyme of Patent Document 3 (Example 7)
Type: biochemical, Geobacillus stearothermophilus NCA 1503 strain
Conditions: 4 hours, 50° C., pH 7.5, cobalt acetate
REPORTED PROPERTY: Conversion rate by L-succinylaminoacylase of Patent Document 3 (%)
Answer in %, number only, no unit symbol.

O=C(O)CCC(=O)NC(Cc1ccc(Br)cc1)C(=O)O (racemic); 97.1

Here is another molecule to look at.
Look up Conversion rate by L-succinylaminoacylase of Patent Document 3 (%) for this molecule: O=C(O)CCC(=O)NC(C(=O)O)C1CCCCC1 (racemic)
53.6

###

Test system: L-succinylaminoacylase of the present invention
Test: Hydrolysis of N-succinyl-DL-amino acid to L-amino acid by L-succinylaminoacylase, HPLC (Examples 2 and 3)
Assay type: biochemical, Geobacillus stearothermophilus IFO 12983 strain
Settings: 10% by weight substrate, 96 hours, same condition as in Example 2 (57° C., 0.5 mM CoCl2)
Protocol: The N-succinyl-DL-tert-leucine synthesized in the above (1) was dissolved in distilled water and its pH was adjusted using 0.1N sodium hydroxide (manufactured by Nacalai tesque) to prepare a 5% by weight solution of N-succinyl-DL-tert-leucine (pH 7 to 8). […] This reaction solution was kept at 57° C. for 144 hours with stirring. Column: Inertsil ODS-2 (particle size: 5 μm; 4.6 mm inner diameter×250 mm length) manufactured by GL Science […]
// Yield (%) of corresponding L-amino acid lookup, one value per entry
Answer in %, number only, no unit symbol.

Look up Yield (%) of corresponding L-amino acid for this molecule: O=C(O)CCC(=O)NC(Cc1c[nH]c2ccccc12)C(=O)O (racemic)
31.4

Look up Yield (%) of corresponding L-amino acid for this molecule: O=C(O)CCC(=O)NC(CO)C(=O)O (racemic)
43.4

Look up Yield (%) of corresponding L-amino acid for this molecule: O=C(O)CCC(=O)NC(C(=O)O)C1CCCCC1 (racemic)
49.2

Look up Yield (%) of corresponding L-amino acid for this molecule: NC(=O)CC(NC(=O)CCC(=O)O)C(=O)O (racemic)
42.5

Look up Yield (%) of corresponding L-amino acid for this molecule: O=C(O)CCC(=O)NC(Cc1ccc(O)cc1)C(=O)O (racemic)
19.1

Look up Yield (%) of corresponding L-amino acid for this molecule: O=C(O)CCC(=O)NC(Cc1ccccc1)C(=O)O (racemic)
37.5

Look up Yield (%) of corresponding L-amino acid for this molecule: CC(C)C(NC(=O)CCC(=O)O)C(=O)O (racemic)
42.4

###

Tested on: L-succinylaminoacylase of the present invention
Assay: Comparative experiment for enzymatic activity (ii), enzyme of the present invention (Example 7)
Format: biochemical, Geobacillus stearothermophilus IFO 12983 strain
Details: 4 hours, 50° C., pH 7.5, cobalt acetate
REPORTED PROPERTY: Conversion rate by L-succinylaminoacylase of the present invention (%)

Look up Conversion rate by L-succinylaminoacylase of the present invention (%) for this molecule: O=C(O)CCC(=O)NC(Cc1ccc(-c2ccccc2)cc1)C(=O)O (racemic)
74.1%

Look up Conversion rate by L-succinylaminoacylase of the present invention (%) for this molecule: O=C(O)CCC(=O)NC(C(=O)O)C1CCCCC1 (racemic)
97.3%

###

Tested on: L-succinylaminoacylase disclosed in Patent Document 3
Test: Comparative experiment for enzymatic activity (ii), enzyme of Patent Document 3 (Example 7)
Format: biochemical, Geobacillus stearothermophilus NCA 1503 strain
Conditions: 4 hours, 50° C., pH 7.5, cobalt acetate
REPORTED PROPERTY: Conversion rate by L-succinylaminoacylase of Patent Document 3 (%)
// return the numeric value with its unit appended

Worked examples, 2 molecules total:
O=C(O)CCC(=O)NC(Cc1ccc(-c2ccccc2)cc1)C(=O)O (racemic); 8.8%
CC(C)(C)C(NC(=O)CCC(=O)O)C(=O)O (racemic); 0.1%

Look up Conversion rate by L-succinylaminoacylase of Patent Document 3 (%) for this molecule: O=C(O)CCC(=O)NC(Cc1ccc(Cl)c(Cl)c1)C(=O)O (racemic)
82.0%

###

Test system: L-succinylaminoacylase of the present invention
Test: Comparative experiment for enzymatic activity (ii), enzyme of the present invention (Example 7)
Type: biochemical, Geobacillus stearothermophilus IFO 12983 strain
Conditions: 4 hours, 50° C., pH 7.5, cobalt acetate
REPORTED PROPERTY: Conversion rate by L-succinylaminoacylase of the present invention (%)
// return the numeric value with its unit appended

CC(C)(C)C(NC(=O)CCC(=O)O)C(=O)O (racemic); 45.7%

Look up Conversion rate by L-succinylaminoacylase of the present invention (%) for this molecule: O=C(O)CCC(=O)NC(Cc1ccc(Cl)c(Cl)c1)C(=O)O (racemic)
83.3%

Look up Conversion rate by L-succinylaminoacylase of the present invention (%) for this molecule: O=C(O)CCC(=O)NC(Cc1ccc(Br)cc1)C(=O)O (racemic)
97.5%
